Data credit: ChEMBL document CHEMBL3751813

Experiment: Hemolytic activity against New Zealand white rabbit RBC after 1 hr by microplate reader analysis
Format: ADME, cell-based, Oryctolagus cuniculus, Erythrocyte
Conditions: rabbit red blood cells
reportedProperty: HC50 at 1 h

Completed entries (count: 2):
Give the measured HC50 at 1 h of COc1c(OCCCCN2CCNCC2)cc2oc3cc(OCCCCN4CCNCC4)c(CC=C(C)C)c(O)c3c(=O)c2c1CC=C(C)C . 72.1 µg/mL

Entry COc1c(OCCCCN2CCN(C(=O)OC(C)(C)C)CC2)cc2oc3cc(OCCCCN4CCN(C(=O)OC(C)(C)C)CC4)c(CC=C(C)C)c(O)c3c(=O)c2c1CC=C(C)C : reported HC50 at 1 h = ? > 200 µg/mL

More entries:
Which HC50 at 1 h value is on record for COc1c(OCCCCN(C)C)cc2oc3cc(OCCCCN(C)C)c(CC=C(C)C)c(O)c3c(=O)c2c1CC=C(C)C ? 32.1 µg/mL

Value lookup for HC50 at 1 h; key = COc1c(OCCCCN2CCOCC2)cc2oc3cc(OCCCCN4CCOCC4)c(CC=C(C)C)c(O)c3c(=O)c2c1CC=C(C)C > 200 µg/mL

I have this compound here, COc1c(OCCCCN(CCO)CCO)cc2oc3cc(OCCCCN(CCO)CCO)c(CC=C(C)C)c(O)c3c(=O)c2c1CC=C(C)C , and I need its recorded HC50 at 1 h. 60.6 µg/mL
